# Assay summary: BET inhibitor-based combinations targeting novel dependencies in MECOM-rearranged (r) AML: MV-4-11 cell line (AID 2202233); further: nearly all actives have a fitted effect of over 45% in size; further: potency means the concentration at half of the fitted maximal effect
# Experimental setup: MV-4-11 AML viability, CellTiter-Glo luminescence, 48 h; series mostly up to 46 µM
# Procedure: Ecotropic viral insertion site 1 (EVI1) is located on chromosome 3q26.2 as part of the MECOM (MDS and EVI1 complex) locus. […] A collection of 2480 mechanistically annotated dugs (MIPE v5.0) was used to screen four 3q26.2 rearranged AML cell lines and three non-3q26.2 rearranged AML cell lines. […] Cell viability was determined by luminescence based, Cell Titer Glo assay (Promega). […] Luminescence readings were taken using a Viewlux (PerkinElmer) with a 2 s exposure time per plate. […]
Records with an inconclusive call do not appear. Calls of active or inactive are those of the source. The call rests on the fitted dose curve; in most records, active means well fitted inhibition curve with a large enough effect; inconclusive means small, poorly fitted or top-dose-only effect; inactive means no such curve, though single readings can be large or run the other way.
Measure name: Potency

# count of solved cases: 5
{"columns": ["Compound", "Value reported"],
 "data": [
  ["C[C@H]1CCC/C=C/C2C[C@H](O)C[C@H]2[C@H](O)/C=C/C(=O)O1 (some centres not stated)", "0.263 µM (active)"],
  ["O=C(NCCCNc1nc(Nc2ccc(N3CCOCC3)cc2)ncc1C1CC1)C1CCC1", "0.372 µM (active)"],
  ["CCOC(=O)Nc1ccc(NCc2ccc(F)cc2)cc1N", "inactive"],
  ["N#CC(O[C@@H]1O[C@H](CO[C@@H]2O[C@H](CO)[C@@H](O)[C@H](O)[C@H]2O)[C@@H](O)[C@H](O)[C@H]1O)c1ccccc1 (some centres not stated)", "inactive"],
  ["N[C@@H](Cc1ccc(N(CCCl)CCCl)cc1)C(=O)O", "1.48 µM (active)"]
]}

Please find the next compound below.
Could you tell me which Potency is on file for O=P1(N(CCCl)CCCl)NCCCO1 (configuration not stated) ?
inactive

* * *

# Assayed target: Aldehyde dehydrogenase 1A1 (Homo sapiens)
# Assay summary: qHTS for Inhibitors of the Aldehyde Dehydrogenase Family (ALDH1A1) Confirmatory screens (AID 2061316); further: nearly all actives have a fitted effect of over 65% in size
# Experimental setup: ALDH inhibition qHTS; series mostly up to 47.3 µM
Records with an inconclusive call do not appear. Calls of active or inactive are those of the source. The call rests on the fitted dose curve; in most records, active means well fitted inhibition curve with a large enough effect; inconclusive means small, poorly fitted or top-dose-only effect; inactive means no such curve, though single readings can be large or run the other way.
Outcome (select one): t for active, f for inactive

{"columns": ["Compound", "Class assignment"],
 "data": [
  ["N#Cc1c(-c2cc(F)cc(-c3no[n+]([O-])c3C#N)c2)no[n+]1[O-]", "t"],
  ["C[C@H]1O[C@@H](O[C@H]2CC[C@]3(CO)C4CC[C@]5(C)[C@@H](C6=CC(=O)OC6)CC[C@]5(O)[C@@H]4CC[C@H]3C2)[C@H](O)[C@H](O)[C@@H]1O[C@@H]1O[C@H](CO)[C@@H](O)[C@H](O)[C@H]1O (stereo partly drawn)", "f"],
  ["NC(=O)CI", "t"],
  ["COc1ccc2c(c[n+](C)c3c4cc5c(cc4ccc23)OCO5)c1OC", "t"],
  ["O=[N+]([O-])c1ccc2nc(N3CCNCC3)ccc2c1", "t"]
]}

Name the outcome recorded for `CCN1C[C@]2(COC(=O)c3ccccc3N3C(=O)C[C@H](C)C3=O)CC[C@H](OC)[C@@]34[C@@H]5C[C@H]6[C@H](OC)[C@@H]5[C@](O)(C[C@@H]6OC)[C@](O)([C@@H](OC)[C@H]23)[C@@H]14` in the assay.
f

Fill in: this test's call for `N#CC(C#N)=Cc1ccc(O)c(O)c1` is ___
t

What was the test verdict on `CCOc1ccc(CCNC(=O)c2cc3cnccc3n2Cc2cccc(C)n2)cc1OCC` ?
f

* * *

# Assayed target: Cellular tumor antigen p53 (Homo sapiens) (UniProt P04637)
# Sequence (P04637 whole entry, looked up): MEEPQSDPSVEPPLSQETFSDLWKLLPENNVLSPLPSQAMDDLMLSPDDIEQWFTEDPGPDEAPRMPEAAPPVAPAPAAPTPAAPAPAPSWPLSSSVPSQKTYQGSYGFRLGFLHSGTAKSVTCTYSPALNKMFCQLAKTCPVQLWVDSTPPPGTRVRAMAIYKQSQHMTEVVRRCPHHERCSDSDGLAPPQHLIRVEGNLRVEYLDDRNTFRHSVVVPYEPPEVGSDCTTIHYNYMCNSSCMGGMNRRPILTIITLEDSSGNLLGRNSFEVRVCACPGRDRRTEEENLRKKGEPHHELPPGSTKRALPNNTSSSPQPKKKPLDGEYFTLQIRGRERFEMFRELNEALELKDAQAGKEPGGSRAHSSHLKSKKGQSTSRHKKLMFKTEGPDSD
# Assay summary: Primary qHTS for small molecule compounds that upregulate eGFP-tagged delta133p53alpha (in N-terminal) cells. (AID 2060322);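 further: cells pre-induced with doxycycline then dosed without doxycycline; 0% = DMSO vehicle and 100% = reference activator; nearly all actives have a fitted effect of over 75% in size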
# Experimental setup: NCI-H358 eGFP-delta133p53alpha fluorescence, 24 h; active compounds read high
Results filed as inconclusive are left out.
Measure name: activation (%)
Number only, in %; omit the unit.

{"columns": ["Molecule", "Assayed target", "activation (%)"],
 "data": [
  ["C=C1C[C@H]2[C@H]3CCC(=O)[C@@]3(C)CC[C@@H]2[C@@]2(C)C=CC(=O)C=C12", "Cellular tumor antigen p53 (Homo sapiens) (UniProt P04637)", 3.97]
]}

// activation lookup, key: `O=C1C=CC(=O)C=C1`
48.4

Can you look up the measured activation of C=C1C2(C)CC3C(C)(O)C4=CC(=O)OC(C)(C)C4=CCC3(C)C13C(=O)OC(C)C3(O)C2=O (centres undefined) for me?
-0.763

* * *

# Assayed target: Aldehyde dehydrogenase, mitochondrial (Homo sapiens) (UniProt P05091)
# Assay summary: qHTS for Inhibitors of the Aldehyde Dehydrogenase Family (ALDH2) Primary screen (AID 2061308);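 further: plate controls were vehicle for no effect and reference inhibitor for full effect; nearly all actives have a fitted effect of over 55% in size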
# Experimental setup: ALDH2 enzyme inhibition qHTS, 1536-well; series mostly up to 56 µM
Records with an inconclusive call do not appear. The source made the active and inactive calls. Calls come from the whole dose curve; as a rule, active = well fitted inhibition curve with a large enough effect; inconclusive = small, poorly fitted or top-dose-only effect; inactive = flat fitted curve, though single readings scatter.
Measure name: activity change, negative = inhibition

Worked set:
{"columns": ["Compound", "Assayed target", "Value reported"],
 "data": [
  ["CN1C(=O)c2ccccc2NC(=O)[C@]12O[C@@H]2c1ccccc1", "Aldehyde dehydrogenase, mitochondrial (Homo sapiens) (UniProt P05091)", "inactive"],
  ["Cn1c(-c2ccccc2)c(P(=S)(c2ccccc2)c2ccccc2)c2ccccc21", "Aldehyde dehydrogenase, mitochondrial (Homo sapiens) (UniProt P05091)", "inactive"],
  ["CCCCCn1cc(C(=O)Cc2ccccc2OC)c2ccccc21", "Aldehyde dehydrogenase, mitochondrial (Homo sapiens) (UniProt P05091)", "inactive"],
  ["O=C1C[C@@H]2OCC=C3CN4CC[C@]56c7ccccc7N1[C@H]5[C@H]2[C@H]3C[C@H]46", "Aldehyde dehydrogenase, mitochondrial (Homo sapiens) (UniProt P05091)", "inactive"]
]}

Next up:
Lab note: need activity change, negative = inhibition for CC(=O)OC1CC(O)C2(C)C(CC(OC(C)=O)C3(C)C2CCC2(C)C(c4ccoc4)C(=O)C4OC423)C1(C)C (stereo not given) on Aldehyde dehydrogenase, mitochondrial (Homo sapiens) (UniProt P05091), anyone have it?
inactive

* * *

# Assay summary: qHTS for Inhibitors of the Aldehyde Dehydrogenase Family (ALDH1A2, ALDH1A3, ALDH2, ALDH3A1) (AID 2061307); further: nearly all actives have a fitted effect of over 50% in size; on Potency: test system not described further here; potency means the concentration at half of the fitted maximal effect
# Experimental setup: ALDH inhibition qHTS; series mostly up to 50.3 µM
Inconclusive results are not listed. The source made the active and inactive calls. Calls follow the shape of the dose curve; as a rule, active = well fitted inhibition curve with a large enough effect; inconclusive = small, poorly fitted or top-dose-only effect; inactive = no such curve, though single readings can be large or run the other way.
Measure name: Potency

Reference set (5 entries):
{"columns": ["Compound", "Potency"],
 "data": [
  ["CCC(C)C1NC(=O)C(C(C)=O)=C1O (configuration not stated)", "inactive"],
  ["O=S(=O)(c1ccccc1F)N1CCOc2c(N3CCNCC3)cccc21", "inactive"],
  ["C[C@@]1(C(=O)O)CC[C@]2(C)CC[C@]3(C)C4=CC(=O)c5cc(O)c(O)cc5[C@]4(C)CC[C@@]3(C)[C@@H]2C1", "inactive"],
  ["O=[N+]([O-])/C=C/c1ccc2c(c1)OCO2", "5.01 µM (active)"],
  ["CN1CCc2cc(O)cc3c2[C@H]1Cc1ccc(O)c(O)c1-3", "inactive"]
]}

Name the reported Potency value associated with the compound `NC(N)=Nc1ccc2[nH]c3c(c2c1)C[C@@]1(O)C2Cc4ccc(O)c5c4[C@@]1(CCN2CC1CC1)[C@H]3O5`
inactive

Any idea what its Potency is? The compound is `CCOc1ccc(CCNC(=O)c2cc3ncccc3n2Cc2cccc(C)n2)cc1OCC`
inactive

Returns the measured Potency for the input compound. Input: `Cc1[nH]c2ccc(Cl)cc2c1CCN(C)C`
inactive

* * *

# Assay summary: BET inhibitor-based combinations targeting novel dependencies in MECOM-rearranged (r) AML: UCSD-AML1 cell line (AID 2202235); further: nearly all actives have a fitted effect of over 40% in size
# Experimental setup: UCSD-AML1 AML cells viability, CellTiter-Glo, 48 h; series mostly up to 46 µM
Inconclusive results are not listed. Activity calls are given as the source filed them. The call rests on the fitted dose curve; in most records, active means well fitted inhibition curve with a large enough effect; inconclusive means small, poorly fitted or top-dose-only effect; inactive means no such curve, though single readings can be large or run the other way.
Hi there, use one of these labels in your reply, thanks! active, inactive

Worked examples follow.
{"columns": ["Molecule", "Class assignment"],
 "data": [
  ["COC[C@H]1OC(=O)c2coc3c2[C@@]1(C)C1=C(C3=O)C2CCC(=O)[C@@]2(C)C[C@H]1OC(C)=O (stereo partly drawn)", "active"],
  ["C#CCN(C)[C@H](C)Cc1ccccc1", "inactive"],
  ["CC1(C)CC[C@]2(NC(=O)C(C)(F)F)CC[C@]3(C)[C@H](C(=O)C=C4[C@@]5(C)C=C(C#N)C(=O)C(C)(C)[C@@H]5CC[C@]43C)[C@@H]2C1", "active"]
]}

// outcome(item) with item = `Cc1ccccc1-n1c(Cn2cnc3c(N)ncnc32)nc2cccc(C)c2c1=O`
inactive

Assay outcome for `COC(=O)[C@@]12OC[C@]34[C@H]([C@@H](O)[C@@H]1O)[C@@]1(C)CC(=O)C(O)=C(C)[C@@H]1C[C@H]3OC(=O)[C@H](OC(=O)/C=C(\C)C(C)C)[C@@H]24` : what was it?
active

Recorded call for `Cn1c(CCCC(=O)O)nc2cc(N(CCCl)CCCl)ccc21` ?
active

// param item: `C[C@]12CCC(=O)C(O)=C1CC[C@@H]1[C@@H]2CC[C@]2(C)C(=O)CC[C@@H]12` ; yields the recorded call
inactive

Recorded test outcome, item CCNC(=O)CC1N=C(c2ccc(Cl)cc2)c2cc(OC)ccc2-n2c(C)nnc21 (stereo not drawn)
active

Measured values drawn from PubChem BioAssay (NCATS) for this set.
